Assignment: determine reported IC50 for the given compounds.
# Tested on: IL-1β release upon NLRP3 activation in peripheral blood mononuclear cells (PBMC)
# protocol-text: PBMC IC50 determination assay: inhibition of IL-1β release upon NLRP3 activation
# Assay type: cell-based
# experimental-conditions: PBMC, PBMC primed with LPS 3 h, compound 30 min, stimulated with ATP (5 mM) or nigericin (10 μM) 1 h; IL-1β by ELISA (Protocol A) or HTRF (Protocol B)
Counter-ions that a name gives are not always drawn.

Completed entries (count: 8):
Enquiry: Enter reported IC50 observed with IL-1β release upon NLRP3 activation in peripheral blood mononuclear cells (PBMC) for CC(C)c1nn(CC(=O)Nc2ncco2)c(=O)c2cn(C3CC3)nc12 [Compound 73]
Return: 0.1 to 1 µM

Enquiry: What about CCOC(=O)c1cnc(NC(=O)Cn2nc(C)c3oc(C4CC4)cc3c2=O)nc1 [Compound 90] ?
Return: 0.1 to 1 µM

Enquiry: Input Cc1nn(CC(=O)Nc2ncccn2)c(=O)c2sc(C3CC3)cc12 [Compound 88]
Return: 0.1 to 1 µM

Enquiry: And for CCn1cc2c(=O)n(CC(=O)N[C@H]3CCCN4CCC[C@@H]34)nc(C(C)C)c2n1 (stereo in doubt) [Compound 7, hydrochloride] ?
Return: 1 to 3 µM

Enquiry: For CCn1cc2c(=O)n(CC(=O)N[C@@H]3CCCN(C)C3)nc(C(C)C)c2n1 [Compound 6] then?
Return: 10 to 50 µM

Enquiry: // next record CC(C)c1nn(CC(=O)NC2CC3(COC3)C2)c(=O)c2ccc(C3CC3)nc12 [Compound 25]
Return: 1 to 3 µM

Enquiry: // same read-out, input: CC(C)c1nn(CC(=O)N[C@@H]2CCCN(C3CC3)C2)c(=O)c2c1cnn2C [Compound 1]
Return: 3 to 10 µM

Enquiry: What do we get for Cc1nn(CC(=O)Nc2ncccn2)c(=O)c2cc(C3CC3)oc12 [Compound 82] ?
Return: 0.1 to 1 µM

List IC50 for every entry below, keeping the order given.
1. CCc1ccc2c(=O)n(CC(=O)Nc3ncc(F)cn3)nc(C(C)C)c2n1 [Compound 43]
2. CCc1cc2c(=O)n(CC(=O)Nc3ncccn3)nc(CC)c2o1 [Compound 54]
3. Cc1nn(CC(=O)Nc2ncc(Cl)cn2)c(=O)c2cc(C3CC3)oc12 [Compound 84]
4. CNc1cc2c(C)nn(CC(=O)Nc3ncco3)c(=O)c2s1 [Compound 119]

Return:
["0.1 to 1 µM", "0.1 to 1 µM", "0.1 to 1 µM", "1 to 3 µM"]

Look up IC50 for the entries below, preserving their order.
1. CC(C)c1nn(CC(=O)N[C@@H]2CCCN(C3CC3)C2)c(=O)c2cn(C)nc12 [Compound 3]
2. CC(C)c1nn(CC(=O)N[C@@H]2CCCN(C3CC3)C2)c(=O)c2cc(Cl)sc12 [Compound 10]
3. Cc1nn(CC(=O)N[C@@H]2CCCN(C3CCC3)C2)c(=O)c2ccc(C3CC3)nc12 [Compound 47]
4. CNc1cc2c(=O)n(CC(=O)Nc3ncccn3)nc(C(C)C)c2o1 [Compound 111]
5. CNc1cc2c(C)nn(CC(=O)Nc3ncccn3)c(=O)c2s1 [Compound 118]

Return:
["3 to 10 µM", "1 to 3 µM", "0.1 to 1 µM", "0.1 to 1 µM", "1 to 3 µM"]
